// reported EC50 for each item listed
System: A2780 ovarian cancer cells
PROTOCOL: Cellular proliferation in A2780 cells, Cell Titer Glo (Biological Method 4)
Type: cell-based
CONDITION LABEL: Homo sapiens; ovarian cancer cell line A2780
PROPERTY: EC50

COMPOUND	SYSTEM	PROPERTY	OBSERVED MEASUREMENT
CC(C)(C)Nc1cc(-c2cnc(N)nc2)nc(N2CCOCC2)n1 [Compound 16]	A2780 ovarian cancer cells	EC50	< 1000 nM
CC(C)N1CCC(Oc2cncc(-c3cc(-c4cnc(N)cc4C(F)(F)F)nc(N4CCOCC4)n3)c2)CC1 [Compound 79]	A2780 ovarian cancer cells	EC50	< 10000 nM
Nc1ccc(-c2cc(Nc3cccc(F)c3)nc(N3CCOCC3)n2)cn1 [Compound 439]	A2780 ovarian cancer cells	EC50	< 10000 nM
Nc1ncc(-c2cc(Nc3ccncc3)nc(N3CCOCC3)n2)cn1 [Compound 44]	A2780 ovarian cancer cells	EC50	< 1000 nM
Nc1ccc(-c2cc(Nc3cnc4ccccc4c3)nc(N3CCOCC3)n2)c(Cl)n1 [Compound 195]	A2780 ovarian cancer cells	EC50	< 1000 nM
COC(=O)N1CCC(Oc2cc(-c3cnc(N)[nH]c3=O)nc(N3CCOCC3)n2)CC1 [Compound 31]	A2780 ovarian cancer cells	EC50	< 1000 nM
CS(=O)(=O)N1CCC(Oc2cc(-c3cnc(N)[nH]c3=O)nc(N3CCOCC3)n2)CC1 [Compound 58]	A2780 ovarian cancer cells	EC50	< 1000 nM
Nc1cc(C(F)(F)F)c(-c2cc(N3CCOCC3Cc3ccccc3)nc(N3CCOCC3)n2)cn1 (centres unmarked) [Compound 113]	A2780 ovarian cancer cells	EC50	< 10000 nM
